Species: Rattus norvegicus
measurement_protocol: Selectivity index, ratio of Ki for displacement of [3H][Ile5,6]deltorphin II from delta opioid receptor in rat brain membranes to Ki for displacement of [3H]DAMGO from mu opioid receptor in rat brain membranes
Format: cell membranes
test_readout: Ratio Ki
Give a plain numeric answer without units written out.

Some solved entries appear below for comparison.
CO[C@@]12CC[C@@H](NCCCC(=O)O)[C@@H]3Oc4c(O)ccc5c4[C@@]31CCN(C)[C@@H]2C5 :: 4.7
CO[C@@]12CC[C@H](N[C@H](C(=O)O)C(C)C)[C@@H]3Oc4c(O)ccc5c4[C@@]31CCN(C)[C@@H]2C5 :: 1.2

Query string: Looking for the measured Ratio Ki of CO[C@@]12CC[C@H](N[C@@H](CCCCN)C(=O)O)[C@@H]3Oc4c(O)ccc5c4[C@@]31CCN(C)[C@@H]2C5 , can you help?
Result string: 6.7

Query string: Any idea what its Ratio Ki is? The compound is CO[C@@]12CC[C@@H](N[C@H](C(=O)O)C(C)C)[C@@H]3Oc4c(O)ccc5c4[C@@]31CCN(C)[C@@H]2C5
Result string: 1.2

Query string: Please give the measured Ratio Ki for this compound: CO[C@@]12CC[C@@H](N[C@@H](CO)C(=O)O)[C@@H]3Oc4c(O)ccc5c4[C@@]31CCN(C)[C@@H]2C5
Result string: 2.5

Query string: Need Ratio Ki of CO[C@@]12CC[C@H](N[C@@H](C(=O)O)C(C)C)[C@@H]3Oc4c(O)ccc5c4[C@@]31CCN(C)[C@@H]2C5 , thanks.
Result string: 1.1

Query string: Field request: Ratio Ki | item: CO[C@@]12CC[C@@H](N[C@@H](CC(N)=O)C(=O)O)[C@@H]3Oc4c(O)ccc5c4[C@@]31CCN(C)[C@@H]2C5
Result string: 1.8

Query string: Using the record for CO[C@@]12CC[C@H](NCCCC(=O)O)[C@@H]3Oc4c(O)ccc5c4[C@@]31CCN(C)[C@@H]2C5 , report its Ratio Ki.
Result string: 16

Query string: Suppose we examine the compound CO[C@@]12CC[C@@H](N[C@H](C(=O)N[C@@H](Cc3ccc(O)cc3)C(=O)O)C(C)C)[C@@H]3Oc4c(O)ccc5c4[C@@]31CCN(C)[C@@H]2C5 ; what Ratio Ki value has been reported?
Result string: 3.1

Query string: Endpoint output: Ratio Ki of CO[C@@]12CC[C@@H](NCC(=O)NCC(=O)O)[C@@H]3Oc4c(O)ccc5c4[C@@]31CCN(C)[C@@H]2C5 . Value?
Result string: 1.6

Query string: Endpoint output: Ratio Ki of CO[C@@]12CC[C@H](N[C@@H](CO)C(=O)O)[C@@H]3Oc4c(O)ccc5c4[C@@]31CCN(C)[C@@H]2C5 . Value?
Result string: 2.4

Query string: Ratio Ki for CO[C@@]12CC[C@@H](N[C@H](C(=O)O)C3CCCCC3)[C@@H]3Oc4c(O)ccc5c4[C@@]31CCN(C)[C@@H]2C5 ?
Result string: 0.8

Query string: Quick check: Ratio Ki of CO[C@@]12CC[C@@H](N[C@@H](Cc3ccccc3)C(=O)O)[C@@H]3Oc4c(O)ccc5c4[C@@]31CCN(C)[C@@H]2C5 ?
Result string: 0.4

Query string: Which Ratio Ki is reported for this compound? CO[C@@]12CC[C@H](NCCC(=O)O)[C@@H]3Oc4c(O)ccc5c4[C@@]31CCN(C)[C@@H]2C5
Result string: 46

Query string: Ratio Ki lookup needed for CO[C@@]12CC[C@@H](N[C@@H](Cc3c[nH]c4ccccc34)C(=O)O)[C@@H]3Oc4c(O)ccc5c4[C@@]31CCN(C)[C@@H]2C5 , thanks.
Result string: 1.8
